System: MS2 coat protein
Assay Summary: apparent KD of MS2 coat protein; higher = weaker reporter binding
Conditions Used: Eterna round: R107; input ligand: arginine 13.2 mM
Readout Name: apparent KD of MS2 coat protein (nM)

INSERT INTO assay_data (biosequence, unit_label, experimental_value) VALUES
  ('ACAUGAGGAUCACCCAUGUAUUACCGGGAAGGAGCGCGUAAGGACGCAGGUAGGUCGCUCGGCGUCGUGCUGUAAAGCACGACGA [#1 Same State - Arginine A Attempt #24 (HarryS)]', 'nM', 67.7),
  ('ACAUGAGGAUCACCCAUGUACAUAAGGGAAGGAGCGCGGUGAAACGCAGGUAGGUCGCCCAUAAUAACAAUAAAUAAAUUCAUGU [LeftA1]', 'nM', 19.8),
  ('GCUUCACAUGAGGAUCACCCAUGUCCGGAUACCAGCUCUCCAGACAGCCCUUGGCAGCCGAGCGCCCGAUUAUAUACCCUAGGAG [theeternabot_sameState_MS2_Theo_A_28]', 'nM', 21.1),
  ('UGUCGCAGGUUAGAUACCAGCGAGGCGCGGGUAAAUGUUCACAUGAGGAUCACCCAUGUUCGCCCUUGGCAGCUAGUAGGCAUAA [theeternabot_exclusion_MS2_Theo_B_36]', 'nM', 23.9),
  ('UUUUAAAGCAUGGCGUAUCGGAAAACCGAUACCAGUACAGAAAUGUACCCUUGGCAGCGGAAUUUUACAUGAGGAUCACCCAUGU [Ex Theophylline A 1]', 'nM', 14.9),
  ('AAUGGUGGAACGAAGUACAGGAGUACAAAUCGAGGACCGGUACGGCCGCCACUCGCGAAAGAACAUGAGGAUCACCCAUGUAAAA [theeternabot_exclusion_MS2_Trp_A_34]', 'nM', 12.1),
  ('CGUGGUGGGACGGAUACCAGCCACCGCGGCAACGCAACAUGAGGAUCACCCAUGUUGGGUGGCCCUUGGCAGCUGUGCUGCGACG [#1 Same State - Theophylline B Attempt #28 (HarryS)]', 'nM', 50.9),
  ('CGCAACCAACAUGAGGAUCACCCAUGUGAAGGAGCGCCGAAUAAGGCAGGUAGGUCGCACAUGAAUAAAUCAUGAAGGAAGCGAA [XArg-A 12 NuPack]', 'nM', 20.5),
  ('AAAUAAACAUCGGCCGCCACUUACUCAUGAGGUAACAACAUGAGGAUCACCCAUGUUUGAGGAUCAAGGACCGGGAUGUAAUAAA [AstrosSSTryB#1]', 'nM', 23.1),
  ('UGAUGGUUCGGAAGGAGCGUGUAAGAACAAGAACAUGAGGAUCACCCAUGUAUUAAUUUAACACAGGUAGGUCGCCGAGUUAUUG [11.I]', 'nM', 12.6),
  ('UAAACUACACAUGAGGAUCACCCAUGUGGCCGAGGACCGGUACGGCCGCCACUCGUGUGUUAAUAAAAGAACUGCAAGGUUCUUC [Uslausce]', 'nM', 76.1);

---

Tested on: K4 kissing-loop RNA reporter
Assay Summary: apparent KD of K4 kissing-loop reporter; higher = weaker reporter binding
Conditions Used: Eterna round: R107; input ligand: FMN 200 uM
Decide using apparent KD of K4 kissing-loop reporter: a value greater than or equal to 300 nM is Fulfilled, a smaller one is Not fulfilled.

INSERT INTO results (biosequence, class) VALUES
  ('AUUUUUUUAUCAGGAUAUUAGUGUUGGUUUGUUUUGUUAGUGAUGUUGAUAUUUGUUUUAUGUAUUUAAGAAGGGAUUUAGAUGU [viuupullin]', 'Not fulfilled'),
  ('GCAGUGAUGUUGCUGGUGUGCAGUGGUAGUCGAGGACCGGUACGGCCGCCACUCGGUGAGAACCUGCUAAUACAUCGAUAAGUGA [XVIII]', 'Fulfilled'),
  ('UUUAAAUAUAGUGAUGUUAUAUAACAAUGACGAGGACCGGUACGGCCGCCACUCGAGAGAGAUAAUGGUCAUACAAAUGUAUGUU [AstrosSSTryA#10]', 'Fulfilled'),
  ('CCUUCUCUUGGUAGUGAUGUUAUCAAGGACAAGGAUAUCAUCUCAAUGAGAAGGUGUCCUUGAUAACAUGGAGGUCUGAAACAGA [Omei KL FMN A Exc C v8]', 'Not fulfilled'),
  ('UUAUUAUUCAGUGAUGUUGAAUUUAUUUCAGAGGAUAUGCAUAAAUGCAGAAGGCUGUAAUACUAUACUUUAAUAAAUUAAAUUU [JR_SSFMNA_Sub018]', 'Not fulfilled'),
  ('GCGGCGGGCCAAGGAUAUAUAUUGGAGUGAUGUUGUUCAUUUAUUUGAGCUAGUGAUGUUGGUCAAAUAGAAGGUGGCCCGCCGC [whbob_Ex_FMNB__2th217]', 'Not fulfilled');

---

System: K4 kissing-loop RNA reporter;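 note: bound reporter read as fluorescence of individual clusters on recovered sequencing chips by microscopy, with normalized cluster intensities fitted with a binding model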
Assay Summary: apparent KD of K4 kissing-loop reporter; higher = weaker reporter binding
Conditions Used: Eterna round: R107; input ligand: FMN 200 uM
Readout Name: apparent KD of K4 kissing-loop reporter (nM)

INSERT INTO assay_data (biosequence, readout_name, experimental_value) VALUES
  ('AAGCAGUCCCUUGUUGUCAUCGAAGAUGAACGAGGACCGGUACGGCCGCCACUCGGAGUGAUGUUCCGAUGGCUGCAAAAUAAAA [MatMod 21 - Jieux - Exclusion - Tryptophan A]', 'apparent KD of K4 kissing-loop reporter', 101),
  ('AAGGUCACUGCUACAGUGAUGUUGUGGGAGCAGGAUAUGCUGAAAAGCAGAAGGGCUCGCUCCAGGUGACCGAAUGAAACAUUCA [whbob_SS_FMNA__2th176]', 'apparent KD of K4 kissing-loop reporter', 1140),
  ('AUUCGUUUAUGUGAUACCAGACUUUGCAGUGAUGUUGCAUUAAUUUUUGAUUAUUAGUUUGUCCCUUGGCAGCACUAUUUAUUUA [JR_SSTheophyB_Sub004]', 'apparent KD of K4 kissing-loop reporter', 40.2),
  ('AAUACCUGAGUGAUGUUCAGGGAAUCAGAAGGAGCGUCAAUUAUGACAGGUAGGUCGCUGAAGACAUGUGUGUAUACACAUGUCC [#04 K4 Arginine A Same State]', 'apparent KD of K4 kissing-loop reporter', 259),
  ('UCCUAGGCUCGAAAGAGCCUAGGAUUGACUCAGGAUAUCCGGAAACGGAGAAGGGAGUCACUAGUGAUGUUAGGGAUUCCCUAUU', 'apparent KD of K4 kissing-loop reporter', 312),
  ('UUCUGCAUCUCGGCCGCCACUCACUAGUGAUGUUAGUAAGGAGCGACUAGACAUGUCCCGUUAUUGAGGACCGGGAGAGGCUCUU [#13 K4 Tryptophan B Exclusion]', 'apparent KD of K4 kissing-loop reporter', 208);

---

Tested on: MS2 coat protein
Assay Summary: apparent KD of MS2 coat protein, switch OFF state (with FMN for OFF switches, without FMN for ON switches); designed switch direction (-1 OFF switch, 1 ON switch): -1; higher = weaker reporter binding
Conditions Used: FMN input: 0 or 200 uM; Eterna round: R93 (includes R88 designs)
Decide using apparent KD of MS2 coat protein: a value greater than or equal to 80 nM is MET, a smaller one is NOT MET.

INSERT INTO assay_data (biosequence, class) VALUES
  ('AAAAAACAUGAGGAUCACCCAUGUAAGGAUAUCAGAGAAUUAAAAAAAAAAAAAAAAAUGAGAAGGUACAAAAA [excaliber]', 'NOT MET'),
  ('AAAAAGGCAGGAUAUACGUACAUGUCGAAAGACGUGAAGGGACAUGAGGAUCACCCAUGUAGAAGGGUCAAGAA [Mat - Exclusion 2 - JL mod - D77]', 'MET'),
  ('AAAUAGUUAGGAUAUACAUGAGGAUCACCCAUGUGGACUUAUGGAGAAUAAUUUAAUGGUAGAAGGGACUAAAA [EX2 Malc#26]', 'NOT MET'),
  ('AAAAAGAGAGGAUAUACAUGAGGAUCACCCAUGUGACAUUAAAUAAAUAAAAUAAAAUGUAGAAGGCUCAAAAA [65%, Moding Exclusion3-cac2, 22]', 'MET'),
  ('GUGUACAGAGGAUAUAUAUGAGCUAGGAAACUAGCAAGAUCACAUGAGGAUCACCCAUGUAGAAGGCUGUACAC [Ex2: 735]', 'MET');

---

Tested on: MS2 coat protein
Assay Summary: apparent KD of MS2 coat protein; designed switch direction (-1 OFF switch, 1 ON switch): -1; higher = weaker reporter binding
Conditions Used: Eterna round: R95; input ligand: microRNA oligo, concentration not stated
Readout Name: apparent KD of MS2 coat protein (nM)

INSERT INTO measurements (biosequence, measured_target, experimental_value) VALUES
  ('GGUUGGCGAGGAUAUACAUGAGGAUCACCCAUGUGAGAGAAAGAAGUGAGAACGAAAAGUAGAAGGCGCUGACG [salish99_ex3_r3_058] (puzzle: Exclusion 3)', 'MS2 coat protein', 65.8),
  ('UAUUAGCAAGCAUGAUCCCACAUGAGGAUCACCCAUGUGCUCGUCUUAUAAGGUACUGUGACGAAAGUCACGGUACC [Sensor 3, v1 - 97] (puzzle: Sensor v3, turn-off variant 1)', 'MS2 coat protein', 89.4),
  ('GGUGGACAUGAGGAUCACCCAUGUGAGGAUAUCGGCUGGCUAGUGGCUGACGGCUGCUCGAGAAGGCGCAUUGU [Exclusion 1 V86] (puzzle: Exclusion 1)', 'MS2 coat protein', 54.7),
  ('UUUAAUUUUUUUUUUUUACAAGCUUUUUGCUCGUCUUAUACAUGAGGAUCACCCAUGUGGGUAAAAGGUAAAUUAUC [JMF 63] (puzzle: Sensor v3, turn-off variant 2)', 'MS2 coat protein', 32.8),
  ('GCACGGUAAGUGAGGAUAUACCUCUGGAUACAGAGGUAGAAGGCACAUGAGGAUCACCCAUGUCUCAGCCGUGC [Fiskers BMX 4 - 87] (puzzle: Brourd''s mod of Exclusion 4)', 'MS2 coat protein', 16.8);
